Target: BRM (Homo sapiens)
Test: ATPase catalytic activity assay (ADP-Glo), BRM
Settings: 30 nM BRM, 400 μM ATP
observable: BRM Max % Inhibition (%)

record.smiles: C[C@@]1(C#N)COCc2ccc(C(=O)NCc3cc4nc(-c5cn(C6COC6)nc5OC(F)F)ccc4cn3)cc21
system.under.test: BRM (Homo sapiens)
observable: BRM Max % Inhibition
measured.value: 101
//
record.smiles: C[C@@]1(C#N)COCc2ccc(C(=O)NCc3cc4nc(-c5ccccc5)cnc4cn3)cc21
system.under.test: BRM (Homo sapiens)
observable: BRM Max % Inhibition
measured.value: 98
//
record.smiles: COc1cncc(-c2ccc3nnc(CNC(=O)c4ccc5c(c4)[C@](C)(C#N)COC5)cc3c2)n1
system.under.test: BRM (Homo sapiens)
observable: BRM Max % Inhibition
measured.value: 100
//
record.smiles: C[C@@]1(C#N)COCc2ccc(C(=O)NCc3cc4nc(-c5ccn6nccc6n5)ccc4cn3)cc21
system.under.test: BRM (Homo sapiens)
observable: BRM Max % Inhibition
measured.value: 95
//
record.smiles: C[C@]1(C#N)CCOc2ncc(C(=O)NCc3cc4nc(-c5cncc(C6CC6)n5)ccc4cn3)cc21
system.under.test: BRM (Homo sapiens)
observable: BRM Max % Inhibition
measured.value: 92
//
record.smiles: C[C@@H]1CN(c2cccc(-c3ccc4[nH]c(CNC(=O)c5ccc6c(c5)[C@](C)(CO)CC6)nc4c3)c2)C[C@H](C)O1
system.under.test: BRM (Homo sapiens)
observable: BRM Max % Inhibition
measured.value: 90.7
//
record.smiles: C[C@@]1(C#N)COCc2ccc(C(=O)NCc3cc4nc(-c5cncc(N6CCC6)n5)sc4cn3)cc21
system.under.test: BRM (Homo sapiens)
observable: BRM Max % Inhibition
measured.value: 93

---

Recorded IC50 by entry
Target: BRM (Homo sapiens)
Assay: ATPase catalytic activity assay (ADP-Glo), BRM
Conditions: BRM ATPase: IC50 (uM), 30 nM BRM, 400 μM ATP

Answer with the recorded IC50 for the molecule listed here: Cn1ncc2cc(-c3ccc4cnc(CNC(=O)c5ccc6c(c5)[C@](C)(C#N)COC6)cc4n3)ccc21 [Compound 105]
< 0.1 µM

Answer with the recorded IC50 for the molecule listed here: COc1cc(Cl)ccc1-c1ccc2cnc(CNC(=O)c3ccc4c(c3)[C@](C)(C#N)COC4)cc2n1 [Compound 156]
< 0.1 µM

---

Molecular target: BRG-1 (Homo sapiens)
Sequence (P51532 whole entry): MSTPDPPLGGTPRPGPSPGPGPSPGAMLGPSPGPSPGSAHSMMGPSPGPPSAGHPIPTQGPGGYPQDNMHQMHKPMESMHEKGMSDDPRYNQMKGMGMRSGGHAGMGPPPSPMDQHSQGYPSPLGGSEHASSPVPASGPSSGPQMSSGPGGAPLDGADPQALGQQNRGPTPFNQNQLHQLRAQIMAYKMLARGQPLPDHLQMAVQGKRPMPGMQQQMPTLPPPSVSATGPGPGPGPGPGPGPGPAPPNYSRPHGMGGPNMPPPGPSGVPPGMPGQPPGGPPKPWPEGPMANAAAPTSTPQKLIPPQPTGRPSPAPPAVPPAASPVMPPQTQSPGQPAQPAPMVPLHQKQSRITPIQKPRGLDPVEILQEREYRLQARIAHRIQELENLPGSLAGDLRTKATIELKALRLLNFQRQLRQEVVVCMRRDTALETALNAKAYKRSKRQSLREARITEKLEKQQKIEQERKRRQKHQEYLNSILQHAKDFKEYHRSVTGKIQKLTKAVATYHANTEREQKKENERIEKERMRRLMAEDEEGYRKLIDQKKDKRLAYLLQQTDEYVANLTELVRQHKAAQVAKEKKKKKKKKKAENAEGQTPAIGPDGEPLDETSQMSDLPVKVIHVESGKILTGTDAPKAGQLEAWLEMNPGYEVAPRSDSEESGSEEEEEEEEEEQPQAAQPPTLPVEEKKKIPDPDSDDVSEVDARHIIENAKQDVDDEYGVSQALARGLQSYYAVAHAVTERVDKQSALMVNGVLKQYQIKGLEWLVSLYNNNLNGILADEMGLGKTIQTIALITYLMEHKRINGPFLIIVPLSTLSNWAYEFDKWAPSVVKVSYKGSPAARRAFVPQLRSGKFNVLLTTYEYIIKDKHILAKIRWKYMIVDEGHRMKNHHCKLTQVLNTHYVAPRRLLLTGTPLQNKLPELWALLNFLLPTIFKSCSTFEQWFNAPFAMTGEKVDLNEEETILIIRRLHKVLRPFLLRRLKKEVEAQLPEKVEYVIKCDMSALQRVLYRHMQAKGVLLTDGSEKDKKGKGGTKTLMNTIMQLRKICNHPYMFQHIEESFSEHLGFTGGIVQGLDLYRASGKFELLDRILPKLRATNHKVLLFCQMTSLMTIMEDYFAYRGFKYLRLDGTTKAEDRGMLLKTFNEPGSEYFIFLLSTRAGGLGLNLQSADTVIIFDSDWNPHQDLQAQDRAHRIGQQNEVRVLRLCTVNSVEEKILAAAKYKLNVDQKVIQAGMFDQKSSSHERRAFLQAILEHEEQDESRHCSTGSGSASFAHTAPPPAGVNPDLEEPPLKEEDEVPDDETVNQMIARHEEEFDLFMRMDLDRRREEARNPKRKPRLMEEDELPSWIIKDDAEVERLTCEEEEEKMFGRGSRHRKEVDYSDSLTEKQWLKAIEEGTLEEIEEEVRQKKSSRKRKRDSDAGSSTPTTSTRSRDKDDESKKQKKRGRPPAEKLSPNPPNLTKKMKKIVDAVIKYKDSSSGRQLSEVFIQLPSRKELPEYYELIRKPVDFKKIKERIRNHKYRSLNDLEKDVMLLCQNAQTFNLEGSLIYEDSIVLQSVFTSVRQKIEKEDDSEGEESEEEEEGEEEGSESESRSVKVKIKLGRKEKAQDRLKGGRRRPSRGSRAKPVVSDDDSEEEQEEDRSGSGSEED
Experiment: ATPase catalytic activity assay (ADP-Glo), BRG-1
observable: IC50

Some solved cases for reference:
molecule: C[C@@]1(C#N)COCc2ccc(C(=O)NCc3cc(C#Cc4ccccc4)c(F)cn3)cc21 [Compound 20]
system.under.test: BRG-1 (Homo sapiens)
IC50: > 1000 nM
--
molecule: COc1c(F)cccc1-c1ccc2cnc(CNC(=O)c3ccc4c(c3)[C@](C)(C#N)COC4)cc2n1 [Compound 516]
system.under.test: BRG-1 (Homo sapiens)
IC50: 500 to 1000 nM
--
molecule: C[C@@]1(C#N)COCc2ccc(C(=O)NCc3cc(N4CC(c5ccccc5)C4)cnn3)cc21 [Compound 46]
system.under.test: BRG-1 (Homo sapiens)
IC50: > 1000 nM

Shift focus to the following entry.
Answer with the recorded IC50 for the molecule listed here: COC(=O)c1cccc(C#Cc2ccnc(CNC(=O)c3ccc4c(c3)[C@](C)(C#N)CCO4)c2)c1 [Compound 24]
> 1000 nM

---

Target: UniProt P51531
Assay: ATPase catalytic activity assay (ADP-Glo), BRM
Details: BRM ATPase: IC50 (uM), 30 nM BRM, 400 μM ATP
Recorded IC50 by entry

Some solved cases for reference:
molecule: CNC(=O)c1cc(-c2ccc3cnc(CNC(=O)c4ccc5c(c4)[C@](C)(C#N)COC5)cc3n2)ccn1 [Compound 450]
IC50: 0.1 to 0.5 µM
//
molecule: C[C@@]1(C#N)COCc2ccc(C(=O)NCc3cc4nc(-c5ccnc(N6C[C@@H]7C[C@H]6CO7)n5)ccc4cn3)cc21 [Compound 340]
IC50: < 0.1 µM
//
molecule: COc1nn(C)cc1-c1cnc2cnc(CNC(=O)c3ccc4c(c3)[C@](C)(F)COC4)cc2n1 [Compound 161]
IC50: 0.1 to 0.5 µM
//
molecule: C[C@@]1(F)COCc2c(F)cc(C(=O)NCc3cc4nc(-c5cncc(N6CCC6)n5)ccc4cn3)cc21 [Compound 398]
IC50: < 0.1 µM

Quote IC50 with test system UniProt P51531 for COc1c(-c2ccc3cnc(CNC(=O)c4ccc5c(c4)[C@](C)(C#N)COC5)cc3n2)cnn1C [Compound 462]
0.1 to 0.5 µM

Quote IC50 with test system UniProt P51531 for Cn1ccc2ncc(-c3ccc4cnc(CNC(=O)c5ccc6c(c5)[C@](C)(C#N)COC6)cc4n3)nc21 [Compound 346]
< 0.1 µM

Quote IC50 with test system UniProt P51531 for COC(=O)N1CCC(C#Cc2ccnc(CNC(=O)c3ccc4c(c3)[C@](C)(C#N)COC4)c2)C1 (some centres unmarked) [Compound 22]
> 1 µM

Quote IC50 with test system UniProt P51531 for C[C@@]1(C#N)COCc2ccc(C(=O)NCc3cc4nc(-c5ccnc(N6CCC6)c5F)ccc4cn3)cc21 [Compound 412]
< 0.1 µM

Quote IC50 with test system UniProt P51531 for C[C@@]1(C#N)COCc2ccc(C(=O)NCc3cc4nc(-c5ccccn5)sc4cn3)cc21 [Compound 440]
0.1 to 0.5 µM

Quote IC50 with test system UniProt P51531 for C[C@@]1(C#N)COCc2ccc(C(=O)NCc3cc([C@H]4C[C@@H]4c4ccccc4)ccn3)cc21 [Compound 7]
> 1 µM

Quote IC50 with test system UniProt P51531 for C[C@@]1(C#N)COCc2ccc(C(=O)NCc3cc(N4CC5(CN(c6ccccc6)C5)C4)ccn3)cc21 [Compound 10]
> 1 µM

Quote IC50 with test system UniProt P51531 for C[C@@]1(C#N)COCc2ccc(C(=O)NCc3cc4nc(-n5cc(F)c(N6CCC6)n5)ccc4cn3)cc21 [Compound 425]
< 0.1 µM

Quote IC50 with test system UniProt P51531 for C[C@@]1(C#N)COCc2ccc(C(=O)NCc3cc4nc(-c5ccnc(N6CCC6)c5F)sc4cn3)cc21 [Compound 235]
< 0.1 µM

Quote IC50 with test system UniProt P51531 for C[C@@]1(C#N)COCc2ncc(C(=O)NCc3cc4nc(-c5cccc(C(F)F)c5)ccc4cn3)cc21 [Compound 500]
< 0.1 µM

Quote IC50 with test system UniProt P51531 for C[C@@]1(C#N)COCc2ccc(C(=O)NCc3cc4cc(-c5ccccc5)ccc4nn3)cc21 [Compound 494]
< 0.1 µM

Quote IC50 with test system UniProt P51531 for C[C@@]1(C#N)COCc2ccc(C(=O)NCc3cc4nc(-c5cccc(C#N)c5)ccc4cn3)cc21 [Compound 112]
0.1 to 0.5 µM

Quote IC50 with test system UniProt P51531 for C[C@@]1(C#N)COCc2ccc(C(=O)NCc3cc4nc(-c5cncc(N6CCOCC6)n5)ccc4cn3)cc21 [Compound 435]
< 0.1 µM

Quote IC50 with test system UniProt P51531 for C[C@@]1(C#N)COCc2ccc(C(=O)NCc3cc4cc(-c5ccnc(C6CC6)n5)cnc4cn3)cc21 [Compound 337]
0.1 to 0.5 µM

Quote IC50 with test system UniProt P51531 for Cn1nccc(-c2ccc3cnc(CNC(=O)c4ccc5c(c4)[C@](C)(F)COC5)cc3n2)c1=O [Compound 293]
0.1 to 0.5 µM

Quote IC50 with test system UniProt P51531 for C[C@@]1(C#N)COCc2ccc(C(=O)NCc3cc4nc(-c5ccnc([C@H]6CC6(F)F)n5)ccc4cn3)cc21 [Compound 217]
< 0.1 µM

Quote IC50 with test system UniProt P51531 for C[C@@]1(C#N)COCc2ccc(C(=O)NCc3cc(N4CC(n5ccc6ccccc65)C4)ccn3)cc21 [Compound 59]
0.1 to 0.5 µM

---

Target: BRM (Homo sapiens, UniProt P51531)
Sequence (P51531 whole entry): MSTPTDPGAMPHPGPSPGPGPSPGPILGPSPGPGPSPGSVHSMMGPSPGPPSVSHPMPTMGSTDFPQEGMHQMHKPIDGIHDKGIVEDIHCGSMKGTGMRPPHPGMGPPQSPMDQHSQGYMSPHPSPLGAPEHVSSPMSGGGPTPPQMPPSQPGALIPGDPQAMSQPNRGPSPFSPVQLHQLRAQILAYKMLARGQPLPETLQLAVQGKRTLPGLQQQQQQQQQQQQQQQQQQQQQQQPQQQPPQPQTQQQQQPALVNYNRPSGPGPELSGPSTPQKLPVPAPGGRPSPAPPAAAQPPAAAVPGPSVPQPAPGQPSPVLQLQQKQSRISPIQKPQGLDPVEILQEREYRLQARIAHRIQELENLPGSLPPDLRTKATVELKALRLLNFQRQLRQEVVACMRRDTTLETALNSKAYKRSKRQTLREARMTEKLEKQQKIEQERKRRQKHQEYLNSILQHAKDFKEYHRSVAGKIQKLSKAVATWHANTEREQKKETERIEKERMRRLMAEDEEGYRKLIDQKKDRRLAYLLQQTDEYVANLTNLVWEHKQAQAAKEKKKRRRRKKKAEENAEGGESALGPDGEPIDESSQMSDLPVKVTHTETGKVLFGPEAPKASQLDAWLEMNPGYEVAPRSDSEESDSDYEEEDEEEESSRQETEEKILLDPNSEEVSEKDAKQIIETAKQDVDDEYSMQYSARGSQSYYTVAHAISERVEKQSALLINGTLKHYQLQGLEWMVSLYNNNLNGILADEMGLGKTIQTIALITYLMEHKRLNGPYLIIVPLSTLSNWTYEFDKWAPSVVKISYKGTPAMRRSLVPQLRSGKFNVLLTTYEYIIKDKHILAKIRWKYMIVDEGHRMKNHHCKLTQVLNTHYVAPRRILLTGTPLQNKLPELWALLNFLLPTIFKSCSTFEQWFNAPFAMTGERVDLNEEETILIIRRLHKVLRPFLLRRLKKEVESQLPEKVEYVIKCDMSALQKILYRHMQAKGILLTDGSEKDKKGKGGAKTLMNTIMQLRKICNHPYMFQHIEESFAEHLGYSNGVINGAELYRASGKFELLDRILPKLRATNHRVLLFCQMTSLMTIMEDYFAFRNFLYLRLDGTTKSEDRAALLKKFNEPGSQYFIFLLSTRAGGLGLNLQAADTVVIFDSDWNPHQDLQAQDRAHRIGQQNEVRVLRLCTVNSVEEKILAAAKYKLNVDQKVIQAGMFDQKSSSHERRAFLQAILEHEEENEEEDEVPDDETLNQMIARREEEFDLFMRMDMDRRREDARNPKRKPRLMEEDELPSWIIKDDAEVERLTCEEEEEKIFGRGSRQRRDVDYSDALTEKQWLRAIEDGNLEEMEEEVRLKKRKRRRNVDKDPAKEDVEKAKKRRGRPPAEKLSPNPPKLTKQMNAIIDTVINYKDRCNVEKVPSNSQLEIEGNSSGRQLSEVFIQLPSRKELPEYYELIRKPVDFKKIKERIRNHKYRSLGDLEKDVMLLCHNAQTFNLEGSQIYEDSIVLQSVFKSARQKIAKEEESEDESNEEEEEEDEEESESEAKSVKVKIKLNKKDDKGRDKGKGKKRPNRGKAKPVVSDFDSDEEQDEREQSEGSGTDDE
Assay: ATPase catalytic activity assay (ADP-Glo), BRM
Settings: BRM ATPase: IC50 (uM), 30 nM BRM, 400 μM ATP
observable: IC50

Answer with the recorded IC50 for the molecule listed here: C[C@@]1(C#N)COCc2ccc(C(=O)NCc3cc4nc(-c5cc(F)cc(N6CCC6)c5)ccc4cn3)cc21 [Compound 95]
< 0.1 µM

Answer with the recorded IC50 for the molecule listed here: Cn1cc2c(n1)CCN(c1ccc3cnc(CNC(=O)c4ccc5c(c4)[C@](C)(C#N)COC5)cc3n1)C2 [Compound 455]
0.1 to 0.5 µM

Answer with the recorded IC50 for the molecule listed here: Cc1ccn(-c2ccc3cnc(CNC(=O)c4ccc5c(c4)[C@](C)(C#N)COC5)cc3n2)n1 [Compound 503]
0.1 to 0.5 µM

Answer with the recorded IC50 for the molecule listed here: Cc1nn(C2COC2)cc1-c1ccc2cnc(CNC(=O)c3ccc4c(c3)[C@](C)(C#N)COC4)cc2n1 [Compound 188]
0.1 to 0.5 µM

Answer with the recorded IC50 for the molecule listed here: C[C@@]1(C#N)COCc2ccc(C(=O)NCc3cc4nc(-c5cccc(N6CCOCC6)n5)ccc4cn3)cc21 [Compound 373]
< 0.1 µM

Answer with the recorded IC50 for the molecule listed here: C[C@@]1(C#N)COCc2ncc(C(=O)NCc3cc4nc(-c5cccc(C6CC6)n5)ccc4nn3)cc21 [Compound 189]
< 0.1 µM

Answer with the recorded IC50 for the molecule listed here: C[C@@]1(F)COCc2ccc(C(=O)NCc3cc4nc(-c5cccc(C6(O)CC(F)(F)C6)n5)ccc4cn3)cc21 [Compound 169]
< 0.1 µM
